Experiment: Components of the Cytosolic LPS Sensing Pathway: Gene Identification via Genome-wide siRNA Screen
Details: RAW264.7 macrophages, IL-1a HTRF, actives lie on both sides, screened at 100 nM (by protocol), cells primed 5 h with Pam3CSK4 first
Among all 53,000 sequences or so, about 3,700 (7%) were called active. This excerpt belongs to a sample that is enriched for actives.
# Lookup of reported z-score keyed by entry
measured_metric: z-score

sequence_text="CCAUCAAUUGGAAAUCUUUTT against Tnn" measured_metric=z-score value_measured="-1.01 (inactive)"
sequence_text="GGAAAUGACGAGAAGAAAGTT against Mapt" measured_metric=z-score value_measured="-0.0597 (inactive)"
sequence_text="GGUGUUGGAAGAGAUGCUGTT against Ap3m2" measured_metric=z-score value_measured="0.405 (inactive)"
sequence_text="CCAAUCGGUGAUCAAGAAATT against Tfap2e" measured_metric=z-score value_measured="-0.525 (inactive)"
sequence_text="CGGGCAUGAUGAAUCGAUGTT against Ldhd" measured_metric=z-score value_measured="1.83 (inactive)"
sequence_text="GGCGAUACUUGGAAAAAUCTT against Nln" measured_metric=z-score value_measured="-0.508 (inactive)"
sequence_text="GGACAGCUCUCUUUAGUCUTT against Erf" measured_metric=z-score value_measured="-1.78 (inactive)"
sequence_text="CCAGUUCUUAACAUUGUGUTT against Syap1" measured_metric=z-score value_measured="-1.13 (inactive)"

###

Assay: Components of the Cytosolic LPS Sensing Pathway: Gene Identification via Genome-wide siRNA Screen
Conditions: RAW264.7 macrophages, IL-1a HTRF, actives lie on both sides, screened at 100 nM (by protocol), cells primed 5 h with Pam3CSK4 first
About 3,700 (7%) of roughly 53,000 sequences were called active. The entries come from a sample that favours actives as a whole.
Listed here are sequences together with their documented z-score.
measured_metric: z-score

sequence_text="GGAAGAUAAAUCACAAUCATT against Cdc37l1" value_measured="0.051 (inactive)"
sequence_text="CGAUGUUACUAUAGGAUCUTT against A730036I17Rik" value_measured="0.33 (inactive)"
sequence_text="GCAUCGCUAAGUCCGUCUUTT against Aqp4" value_measured="-0.1 (inactive)"
sequence_text="GGCCAGCAAAACAAAUGACTT against Slc34a2" value_measured="-1.01 (inactive)"
sequence_text="GGAGAAGCUCUUAAAGAAATT against Traf3ip3" value_measured="0.959 (inactive)"
sequence_text="GGCCAGAAGAUCUUCACCATT against Furin" value_measured="0.449 (inactive)"
sequence_text="GGGUUUCUGUUAAUCCACATT against H3c8" value_measured="-1.38 (inactive)"
sequence_text="GGAAAGUGAAAGUUAGUUUTT against Cbx6" value_measured="0.244 (inactive)"

###

Experiment: Components of the Cytosolic LPS Sensing Pathway: Gene Identification via Genome-wide siRNA Screen;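 note: robust z of the log signal after scaling to non-targeting control siRNA wells of the plate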
Settings: RAW264.7 macrophages, IL-1a HTRF, actives lie on both sides, screened at 100 nM (by protocol), cells primed 5 h with Pam3CSK4 first
Out of some 53,000 sequences screened, about 3,700 (7%) were called active.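 How the source made its calls: active means gene knockdowns whose robust z-score for IL-1 alpha signal is at least 2 or at most -2, so actives lie on both sides; inactive means the rest.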 Many of the other results were omitted from the sample, so actives are more common in it than they were.
Outcomes: 1 (active), 0 (inactive)

sequence_text="GGAGUAGAAGAAGAGGAGUTT against Mrpl50" label_class=0
sequence_text="CCUGGUAUCCAAGAGGAAGTT against Myt1" label_class=1
sequence_text="GGGAGCUACGUUCAGAAGUTT against Gckr" label_class=0
sequence_text="GCUUUGAGACCUAAUGAUGTT against 1810024B03Rik" label_class=0
sequence_text="GGGCUGAAGUGAAACCAGATT against D930048N14Rik" label_class=0
sequence_text="GGCUAAGCUGAAGAAGCACTT against Fam219b" label_class=0

###

Experiment: Components of the Cytosolic LPS Sensing Pathway: Gene Identification via Genome-wide siRNA Screen;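 note: robust z of the log signal after scaling to non-targeting control siRNA wells of the plate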
Conditions: RAW264.7 macrophages, IL-1a HTRF, actives lie on both sides, screened at 100 nM (by protocol), cells primed 5 h with Pam3CSK4 first
Among all 53,000 sequences or so, about 3,700 (7%) were called active. The full list was thinned out, with actives kept by preference.
Outcome label depends on z-score relative to -0.5: at/above gives condition met, below gives condition not met.

sequence_text="GGUGUGUGAACCAUGUGUGTT against Olfr157" label_class="condition not met"
sequence_text="GCUUCGACAAAAGAAGAUGTT against Ccdc174" label_class="condition met"
sequence_text="GCGUGAGUCCCUAUAUGAATT against Tmem177" label_class="condition met"
sequence_text="CCUUUGGUAAUCUCCAAAATT against Amph" label_class="condition met"
sequence_text="GCAGUGAUCCGGAACAAAUTT against Tmc3" label_class="condition met"
sequence_text="GGUCAUCGUGUGCAACCUCTT against Zcchc3" label_class="condition not met"
sequence_text="CCAAUUGUGAGAAGAGUGUTT against Cog7" label_class="condition met"

###

Assay: Components of the Cytosolic LPS Sensing Pathway: Gene Identification via Genome-wide siRNA Screen;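 note: robust z of the log signal after scaling to non-targeting control siRNA wells of the plate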
Settings: RAW264.7 macrophages, IL-1a HTRF, actives lie on both sides, screened at 100 nM (by protocol), cells primed 5 h with Pam3CSK4 first
Out of some 53,000 sequences screened, about 3,700 (7%) were called active. Shown is part of a subset that was picked to be rich in actives.
Simple rule here: z-score less than 0.3 is yes, otherwise no.

sequence_text="GGAAAUUACUUUGAUACUCTT against Rfx3" label_class=no
sequence_text="GGAGAGCUUGUUCAAGUGCTT against Zxdc" label_class=yes
sequence_text="GGAUAUGGAAGAAGUUGUGTT against Olfr1089" label_class=yes
sequence_text="GGAUGAUGCCCGAAAGAACTT against Zfp536" label_class=yes
sequence_text="GGUAAUGAUCCAUUCACCATT against Ly75" label_class=yes
sequence_text="GUGUAUCCCAGGCUAUCACTT against Vmn1r19" label_class=yes
sequence_text="GGCUUCAGAUUUCGAUAUGTT against Nfkb2" label_class=no
sequence_text="GUGCUCUAUGUCUUCACUGTT against Ltb4r2" label_class=yes
sequence_text="GCAAAUCAUUUAGGACCCATT against Amer2" label_class=yes
sequence_text="GGAUUUAUUGACCUCUUAATT against Sp8" label_class=no
sequence_text="GGCAGCAUUACACUGAAUCTT against Slc36a4" label_class=no
sequence_text="GGACAUCAGUUGUCCUAGCTT against Ano6" label_class=yes
sequence_text="GGCAAUUUGGAUACCAGGATT against Zfp24" label_class=yes
sequence_text="GGUACCUAUGCCAGUUUUGTT against Aqp12" label_class=no
sequence_text="GGAGCUCUGGGACAAAUUCTT against Tbx20" label_class=no
sequence_text="GGACGGUGACCUGUAUGAUTT against Cpxm1" label_class=yes
sequence_text="GGUCGUCCAGCUGAAGAACTT against Mecr" label_class=no
sequence_text="GGGAAUGUCUGAAAGUCCCTT against Klhdc10" label_class=no
sequence_text="GGAAUAAUUGGUGUUAAAGTT against Hnrnpk" label_class=no
sequence_text="GGAUGAAAUCGCCAUAUGUTT against Snrnp48" label_class=yes

###

Test: Components of the Cytosolic LPS Sensing Pathway: Gene Identification via Genome-wide siRNA Screen;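 note: robust z of the log signal after scaling to non-targeting control siRNA wells of the plate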
Details: RAW264.7 macrophages, IL-1a HTRF, actives lie on both sides, screened at 100 nM (by protocol), cells primed 5 h with Pam3CSK4 first
Among all 53,000 sequences or so, about 3,700 (7%) were called active. The full list was thinned out, with actives kept by preference.
Record Condition met whenever z-score is at -1 or higher; record Condition not met when lower.

sequence_text="CCCUAUGAGCAAAUCACAUTT against Ppp3cc" label_class="Condition met"
sequence_text="GGAUGAGAACAGCAACCAGTT against Bcl7b" label_class="Condition not met"
sequence_text="CCCUUCUCCACCUGAGAGUTT against Orm3" label_class="Condition not met"
sequence_text="GGCCCACAGUUUGUGACUGTT against Larp7" label_class="Condition not met"
sequence_text="GGAGCUGUGAGCAUUACUGTT against Cenpm" label_class="Condition not met"
sequence_text="GGUAAUGGGAGCUAGUUUATT against 6330549D23Rik" label_class="Condition met"
sequence_text="GCAGUUAUCCGUAUUUAAATT against Ctnnbl1" label_class="Condition met"
sequence_text="GGUGUCCAGUUCAUCCAGGTT against Vxn" label_class="Condition met"
sequence_text="CCCUGGGUGUACAAGUCCUTT against Slc25a41" label_class="Condition met"
sequence_text="GCAUGUGUACCAUUUACCUTT against Prdx1" label_class="Condition met"
sequence_text="GGGCAACCCACAAUAAAAATT against B9d1" label_class="Condition not met"
sequence_text="GGUGAAUGUAGUGUUAAAATT against Cyrib" label_class="Condition met"
sequence_text="GGACUUGAAAUUAGCAAAATT against Arhgef3" label_class="Condition met"
sequence_text="GGCCUUGUAUGAAUUAUUUTT against Sqle" label_class="Condition met"
sequence_text="GGUGAAUCAGACAUACUAUTT against Snupn" label_class="Condition met"
sequence_text="GCCUUUGCACAGUUUGGACTT against BC002059" label_class="Condition not met"
sequence_text="CCCACUUAUAUAUGUAGUUTT against Wdyhv1" label_class="Condition met"
sequence_text="GGAAGCACUCAGUGCUCUGTT against Igfbp6" label_class="Condition met"
sequence_text="GGAGAAGGUUCACUCUGAUTT against Traf1" label_class="Condition met"
